- test_target: Vasopressin V2 receptor (Homo sapiens, UniProt P30518)
- Sequence (P30518 whole entry): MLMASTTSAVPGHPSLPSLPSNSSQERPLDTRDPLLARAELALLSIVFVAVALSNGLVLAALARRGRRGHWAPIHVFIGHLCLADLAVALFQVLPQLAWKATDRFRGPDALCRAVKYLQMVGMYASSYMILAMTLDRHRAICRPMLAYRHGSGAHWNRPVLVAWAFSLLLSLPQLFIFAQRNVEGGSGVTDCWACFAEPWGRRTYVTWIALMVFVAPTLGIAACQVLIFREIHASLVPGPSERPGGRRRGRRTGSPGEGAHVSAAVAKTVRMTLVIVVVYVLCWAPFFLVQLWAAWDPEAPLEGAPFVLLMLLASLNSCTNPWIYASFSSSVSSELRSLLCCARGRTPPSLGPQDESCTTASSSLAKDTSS
- method_notes: Displacement of [3H]AVP from human V2 receptor transfected in LV2 cells
IC50 vs 0.4 µM: less than gives TRUE; not less than gives FALSE.

Cc1ccn(-c2ccc(C(=O)N3Cc4cccnc4Nc4ccccc43)c(Cl)c2)n1; TRUE
Cc1ccn(-c2ccc(C(=O)N3Cc4cccnc4Nc4ccccc43)c(C(F)(F)F)c2)n1; FALSE
Cc1ccn(-c2ccc(C(=O)N3Cc4cccn4Cc4ccccc43)c(Cl)c2)n1; TRUE
Cc1ccn(-c2ccc(C(=O)N3Cc4cccnc4Nc4ccccc43)c(Br)c2)n1; TRUE
Cc1ccn(-c2ccc(C(=O)N3Cc4cccnc4Nc4ccccc43)c(F)c2)n1; FALSE

Answer whether the molecule Cc1ccn(-c2ccc(C(=O)N3Cc4cccnc4N(C)c4ccccc43)c(Cl)c2)n1 has IC50 strictly less than 0.4 µM
FALSE

Also check Cc1ccnn1-c1ccc(C(=O)N2Cc3cccnc3Nc3ccccc32)c(C(F)(F)F)c1
FALSE

Also check Cn1ccc(-c2ccc(C(=O)N3Cc4cccnc4Nc4ccccc43)c(Cl)c2)n1
TRUE

###

- test_target: Vasopressin V1a receptor (Rattus norvegicus)
- Sequence (P30560 whole entry): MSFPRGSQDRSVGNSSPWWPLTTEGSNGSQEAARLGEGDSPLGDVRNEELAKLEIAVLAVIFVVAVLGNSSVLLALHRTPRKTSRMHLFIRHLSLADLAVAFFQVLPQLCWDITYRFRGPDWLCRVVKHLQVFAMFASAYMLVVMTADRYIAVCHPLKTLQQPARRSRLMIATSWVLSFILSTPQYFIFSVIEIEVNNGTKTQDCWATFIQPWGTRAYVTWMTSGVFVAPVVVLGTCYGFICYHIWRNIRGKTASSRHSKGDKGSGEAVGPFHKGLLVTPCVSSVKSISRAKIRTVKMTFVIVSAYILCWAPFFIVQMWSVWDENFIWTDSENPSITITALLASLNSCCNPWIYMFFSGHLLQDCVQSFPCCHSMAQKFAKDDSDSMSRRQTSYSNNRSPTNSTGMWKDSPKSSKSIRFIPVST
- method_notes: Antagonism of AVP-induced response at V1a receptor in isolated rat tail arteries
measurement_label: IC50

Short answer please: IC50, Vasopressin V1a receptor (Rattus norvegicus), entry Cc1ccn(-c2ccc(C(=O)N3Cc4cccnc4Nc4ccccc43)c(C(F)(F)F)c2)n1
> 30 µM

###

- test_target: Vasopressin V2 receptor (Homo sapiens, UniProt P30518)
- method_notes: Displacement of [3H]AVP from human V2 receptor transfected in LV2 cells at 300 nM
- Assay type: cell-based
Cut-off 10% on inhibition, inclusive. At or above means satisfied; below means not satisfied.

Example cases with answers are listed next.
O=C(c1ccc(-n2ccc(C(F)(F)F)n2)cc1Cl)N1Cc2cccnc2Nc2ccccc21; satisfied
CC(C)(C)c1ccn(-c2ccc(C(=O)N3Cc4cccnc4Nc4ccccc43)c(C(F)(F)F)c2)n1; satisfied
O=C(c1ccc(-n2ccc(-c3ccncc3)n2)cc1Br)N1Cc2cccnc2Nc2ccccc21; satisfied
Cc1ccn(-c2cc(F)ccc2C(=O)N2Cc3cccnc3Nc3ccccc32)n1; not satisfied

# input for lookup
Decide: is the reported value of inhibition for O=C(c1ccc(-n2ccc(C(F)(F)F)n2)cc1C(F)(F)F)N1Cc2cccnc2Nc2ccccc21 equal to or greater than 10%?
not satisfied

###

Attribute: Activity
- Test system: Rattus norvegicus
- method_notes: Antidiuretic effect measured as increase in osmolality over control in water-loaded Sprague-Dawley rat at 10 mg/kg, po
- Type: functional, Urine
Report the figure in % without appending any unit label.

Worked examples, 5 compounds total:
Cc1ccnn1-c1ccc(C(=O)N2Cc3cccnc3Nc3ccccc32)c(Cl)c1; 189
O=C(c1ccc(-n2ccc(C(F)(F)F)n2)cc1Cl)N1Cc2cccnc2Nc2ccccc21; 162
Cc1ccn(-c2ccc(C(=O)N3Cc4cccnc4N(C)c4ccccc43)c(C(F)(F)F)c2)n1; 198
Cc1n[nH]c(-c2ccc(C(=O)N3Cc4cccnc4Nc4ccccc43)c(Cl)c2)n1; 516
Cc1ccn(-c2ccc(C(=O)N3Cc4cccn4Cc4ccccc43)c(Cl)c2)n1; 286

Short answer please: Activity, Rattus norvegicus, entry Cc1ccn(-c2ccc(C(=O)N3Cc4cccnc4Nc4ccccc43)c(C(F)(F)F)c2)n1
239

Also check CC(C)(C)c1ccn(-c2ccc(C(=O)N3Cc4cccnc4Nc4ccccc43)c(C(F)(F)F)c2)n1
-7
